Data origin: patent US20070190523A1

Test system: 30N82I88D
test.description: microbe, parasite or virus in culture
Assay type: cell-based, HIV
details: MT-4, 30N82I88D; read-out: Cell-based assay (MT-4) EC50/nM 30N82I88D

| compound | EC50 |
| --- | --- |
| CCOP(=O)(COCCCN1C(=O)N(Cc2ccc3[nH]nc(N)c3c2)C(Cc2ccccc2)C(O)C(O)C1Cc1ccccc1)OCC (stereo not shown) | 145 nM |

* * *

Test system: mutant HIV-1 with I84V/L90M mutations
Format: cell-based
details: fold difference in EC50 vs wild type, class symbols

| compound | I84V/L90M fold change |
| --- | --- |
| COc1ccc(S(=O)(=O)N(CC(C)C)CC(O)C(Cc2ccc(OCP(=O)(OC(C)C(=O)OC(C)C)OC(C)C(=O)OC(C)C)cc2)NC(=O)OC2COC3OCCC23)cc1 (centres unmarked) [drawing 607 R1=Lac-iPr R2=Lac-iPr] | − (≦3) |
| COc1ccc(S(=O)(=O)N(CC(C)C)CC(O)C(Cc2ccc(OCP(=O)(OCc3ccccc3)OCc3ccccc3)cc2)NC(=O)OC2COC3OCCC23)cc1 (centres unmarked) [drawing 602 R1=OBn R2=OBn] | − (≦3) |
| CCOP(=O)(OCC)c1ccc(CC(NC(=O)OC2COC3OCCC23)C(O)CN(CC(C)C)S(=O)(=O)c2ccc(OC)cc2)cc1 (centres unmarked) [drawing 604 R1=OEt R2=OEt] | − (≦3) |
